System: UACC-257
Assay: NCI tumour cell line growth inhibition, 48 h
Active and inactive are the calls of the source. Cut-off read from the data, not from the text of the source: active = GI50 up to about 1.1 µM and inactive = higher.
GI50 for assorted compounds

Use these answered entries as a reference point.
C/C(CC(=O)N(C(C)C)C(C)C)=N\NC(=O)c1ccncc1 :: > 100 µM (inactive)
COc1ccc(CCNC(=O)Cc2ccccc2CO)cc1OC :: > 100 µM (inactive)
CCOc1ccc2c(c1)[n+]([O-])c(-c1ccc([N+](=O)[O-])cc1)c(N)[n+]2[O-] :: > 100 µM (inactive)

Field request: GI50 | item: CC1CC2CC(=O)CC3(C1)C2CCCN3CCCO (centres undefined)
> 100 µM (inactive)

Cool, now `CCCCC(=O)OC[n+]1cccc(-c2c(COC(=O)NC(C)C)c(COC(=O)NC(C)C)c3n2CCC3)c1`
44.7 µM (inactive)

Same lookup for `O=S(=O)(O)c1cc(Nc2ccnc3ccccc23)c2c(S(=O)(=O)O)cc(S(=O)(=O)O)cc2c1` , please.
> 100 µM (inactive)

Follow-up entry: C=C1C(=O)OC2C=C(C)CC3C=C(CCC=C(C)CCC12)C(=O)O3 (centres undefined)
43.1 µM (inactive)

Next compound up: C=C1C(=O)OC2/C=C(CO)/C=C\C3OC3(C)CC(OC(=O)/C(C)=C/COC(C)=O)C12 (centres undefined)
2.37 µM (inactive)
